# Lookup of reported apparent KD of MS2 coat protein keyed by entry
System: MS2 coat protein
TEST PROTOCOL: apparent KD of MS2 coat protein; designed switch direction (-1 OFF switch, 1 ON switch): -1; higher = weaker reporter binding
TEST SETTINGS: Eterna round: R95; input ligand: none

- SEQUENCE DATA: "CUAGUCCGAGGAUAUAUUAUGUGAAACAUGAGGAUCACCCAUGUUAUAUGAUGGAUGAAAAUAGAAGGCGGACUAG [Mat - Exclusion 5 - JL mod - D61] (puzzle: Exclusion 5)"
  apparent KD of MS2 coat protein [nM]: 88.1
- SEQUENCE DATA: "CUGAGCAGACGGAGAUCCAACAUGAGGAUCACCCAUGUCUCAUAAGCUUUUUGCUCAUCUUAUUGUACCUUGGUGCU [JL ViennaUCT Edcesobi mod 3] (puzzle: Sensor v3, turn-off variant 1)"
  apparent KD of MS2 coat protein [nM]: 323
- SEQUENCE DATA: "AAAAGGCGAGGAUAUACAUGAGGAUCACCCAUGUGAAAGAAAGAAAGAAAGAAGAAAGGUAGAAGGCGCAAAGA [Mine, also!] (puzzle: Exclusion 3)"
  apparent KD of MS2 coat protein [nM]: 67
- SEQUENCE DATA: "GGCCGAGAACAGCUCCACGCUACCCUCGGCCGCUCAUUUACAUGAGGAUCACCCAUGUUUUUUGCUUGUCUUGUUUC [Xeisrarabi] (puzzle: Sensor v3, turn-off variant 2)"
  apparent KD of MS2 coat protein [nM]: 24.1
